assay: Plasma incubations (human plasma stability); type: in vitro ADME; settings: 37° C. Note: tested at 25 µM.
Attribute Measured: Human Plasma Stability % rem. @ 1 h (%)

* CO[C@@H]1CN(C(=O)[C@H](CC(C)(C)C)NC(=O)c2ccc(N3CCN(C(C)C)CC3)cc2)[C@@H]2C(=O)CO[C@@H]21 | 91
* CO[C@H]1CN(C(=O)[C@H](CC(C)C)NC(=O)c2ccc(N3CCN(C)CC3)cc2)[C@@H]2C(=O)CO[C@H]12 | 96
* CC(C)C[C@H](NC(=O)c1ccc(N2CCN(C)CC2)cc1)C(=O)N1CC[C@H]2OCC(=O)[C@H]21 [reference compound] | 95
* COCCN1CCN(c2ccc(C(=O)N[C@@H](CC(C)C)C(=O)N3C[C@H](N)[C@H]4OCC(=O)[C@H]43)cc2)CC1 | 88
* CO[C@@H]1CN(C(=O)[C@H](CC(C)(C)C)NC(=O)c2ccc(N3CCN(C)CC3)cc2)[C@@H]2C(=O)CO[C@@H]21 | 89
* CCCN1CCN(c2ccc(C(=O)N[C@@H](CC(C)(C)C)C(=O)N3C[C@@H](OC)[C@H]4OCC(=O)[C@H]43)cc2)CC1 | 97
* CC(C)C[C@H](NC(=O)c1ccc(C(C)(C)C)cc1)C(=O)N1CC[C@H]2OCC(=O)[C@H]21 [reference compound] | 75
* CCN1CCN(c2ccc(C(=O)N[C@@H](CC(C)C)C(=O)N3C[C@H](OC)[C@H]4OCC(=O)[C@H]43)cc2)CC1 | 96
* CCCN1CCC(c2ccc(C(=O)N[C@@H](CC(C)(C)C)C(=O)N3C[C@@H](OC)[C@H]4OCC(=O)[C@H]43)cc2)CC1 | 99
* CCCN1CCN(c2ccc(C(=O)N[C@@H](CC(C)(C)C)C(=O)N3C[C@H](OC)[C@H]4OCC(=O)[C@H]43)cc2)CC1 | 98
* CCN1CCN(c2ccc(C(=O)N[C@@H](CC(C)(C)C)C(=O)N3C[C@@H](OC)[C@H]4OCC(=O)[C@H]43)cc2)CC1 | 92
* COCCN1CCN(c2ccc(C(=O)N[C@@H](CC(C)C)C(=O)N3C[C@@H](O)[C@H]4OCC(=O)[C@H]43)cc2)CC1 | 95
* COCCN1CCN(c2ccc(C(=O)N[C@@H](CC(C)C)C(=O)N3C[C@H](O)[C@H]4OCC(=O)[C@H]43)cc2)CC1 | 92
